assay: in vitro; settings: human, hela cells, % viability
Assign labels as follows, please: yes for viability at 28.5 h, 10 µM below 90%; no for viability at 28.5 h, 10 µM equal to or exceeding 90%.

# Compound, Classification
data = [
    ("Cc1ccnc(SCC(=O)c2cc(C)n(C3CC3)c2C)n1 [CBK304686]", "no"),
    ("CCN1CCC(CC(=O)N2CCc3[nH]c4ccccc4c3C2)CC1 [CBK281846]", "yes"),
    ("COc1ccc(OC)c(C(O)c2nc3ccccc3n2C(C)C)c1 (stereo not shown) [CBK263474]", "no"),
    ("O=C(CC1CC1)N1CCCC2(CCN(C(=O)c3cc(F)c(F)cc3F)C2)C1 (stereo not shown) [CBK131531]", "no"),
    ("O=C(Nc1ccc(-c2nc3ccccc3o2)c(O)c1)c1ccc(-c2ccc([N+](=O)[O-])cc2)o1 [CBK263416]", "no"),
]

----------
Each entry below lists one item and its recorded viability at 28.5 h, 10 µM value.
assay: in vitro; conditions: human, hela cells, % viability

# Compound, Readout units, viability at 28.5 h, 10 µM
records = [
    ("O=C(Cn1ccc(=O)[nH]c1=O)NCc1cccnc1-n1cccn1", "%", 85),
    ("O=C(O)c1cc(-c2ccc(/C=C3\\SC(=S)N(Cc4cccnc4)C3=O)o2)ccc1Cl", "%", 112),
    ("C[C@@H]1CN(C(=O)c2cc3ccccc3n2C)C[C@H](C)O1", "%", 91.4),
    ("O=C(c1ccco1)N1CCN(c2ncccn2)CC1", "%", 111),
    ("COc1ccc(S(=O)(=O)N2CCN(Cc3ccc4c(c3)OCO4)CC2)c(Cl)c1Cl", "%", 102),
    ("O=C1c2ccccc2C(=O)N1c1ccccn1", "%", 99.5),
    ("CC(=O)NCCN1CCC(O)(c2ccc(C)cc2)CC1", "%", 87.6),
    ("Nc1ncc(-c2cccnc2)nc1-c1ccc(C(=O)N2CCOCC2)cc1", "%", 93.4),
    ("COc1ccc(C)cc1S(=O)(=O)Nc1cc(Cl)ccc1C(=O)NCc1ccccc1", "%", 85.5),
    ("N#C/C(=C\\c1cn(CCC(N)=O)c2ccccc12)c1nc2ccccc2[nH]1", "%", 104),
    ("COC(=O)c1ccccc1NC(=O)C1CCCN(S(=O)(=O)c2cc(Cl)ccc2Cl)C1 (stereo not shown)", "%", 101),
    ("Cc1ccc(NC2(C#N)C(=O)Nc3ccccc32)cc1C (stereo not shown)", "%", 114),
    ("Cc1cc(OCC(=O)Nc2ccc(S(=O)(=O)N3CCOCC3)cc2)ccc1[N+](=O)[O-]", "%", 113),
]

----------
Entries annotated with measured viability at 28.5 h, 10 µM
experiment: in vitro; conditions: human, hela cells, % viability

# Compound, viability at 28.5 h, 10 µM, %
data = [
    ("O=C(NC(c1ccccn1)c1cccs1)C1CCN(S(=O)(=O)c2ccc(C(F)(F)F)cc2)CC1 (stereo not shown) [CBK060153]", 92.4),
    ("CC(C)(N)CNC(=O)c1cc(-c2ccc(Cl)cc2)[nH]n1 [CBK116554]", 91.5),
    ("Cc1ccc(-c2nc(Nc3ccc(F)cc3)sc2CC(=O)O)cc1 [CBK264286]", 89.4),
    ("COc1ccc([C@@]23CC[C@@H](NC(=O)Nc4ccc(Cl)cc4Cl)C[C@@H]2CN(C)C3)cc1OC [CBK085798T]", 88.5),
]
